propertyMeasured: melting point

Exercise: Would you kindly share the measured melting point for CC1CC(=O)c2c(F)c(F)cc3c(=O)c(C(=O)O)cn1c23 (centres undefined) ?
Solution: 323 to 325 °C

Exercise: Same question for `CCOC(=O)C(C#N)=C(N)c1cc2cc(Br)cc(Br)c2oc1=O` please.
Solution: 258 to 260 °C

Exercise: Same question for `Oc1ccc(Oc2ccc(O)cc2)cc1` please.
Solution: 163 to 168 °C

Exercise: Same question for `CC(C)(C)OC(=O)c1n[nH]c2nc(F)ccc12` please.
Solution: 166 to 168 °C

###

For each of the molecules below, state its melting point.

Exercise: Would you kindly share the measured melting point for `CS(=O)(=O)c1ccc(N)c(Cl)c1` ?
Solution: 191 to 198 °C

Exercise: Same question for `COc1ccc(S(=O)(=O)Cl)cc1` please.
Solution: 40 to 42 °C

Exercise: Same question for `Cc1nnsc1-c1nnc(S)n1C1CC1` please.
Solution: 212 to 213 °C

Exercise: Same question for `Cc1cc(C(=O)N2CCN(c3ccccc3)CC2)no1` please.
Solution: 101 to 103 °C

Exercise: Same question for `COc1ccccc1P(c1ccccc1OC)c1ccccc1OC` please.
Solution: 204 to 208 °C

###

propertyMeasured: melting point

Exercise: Would you kindly share the measured melting point for `CC(C)OC(=O)N=NC(=O)OC(C)C` ?
Solution: 3 to 5 °C

Exercise: Same question for `CC(=O)Nc1cc(F)ccc1C(=O)O` please.
Solution: 212 to 216 °C

Exercise: Same question for `COc1cc(C(C)=O)cc(OC)c1OC` please.
Solution: 81 °C

Exercise: Same question for `O=Cc1ccc(-c2cncc(C(=O)O)c2)cc1` please.
Solution: 231 to 234 °C

###

propertyMeasured: melting point

Exercise: Would you kindly share the measured melting point for `CCCCc1ccc(/N=N/c2ccc(OC(=O)CC)cc2)cc1` ?
Solution: 84 to 87 °C

Exercise: Same question for `O=[N+]([O-])c1cccnc1Oc1cncc(Cl)c1` please.
Solution: 104 to 105 °C

Exercise: Same question for `ON=C(CBr)c1ccc(F)cc1` please.
Solution: 84 to 90 °C

Exercise: Same question for CC(=O)NC(Cc1ccccc1F)C(=O)O (racemic) please.
Solution: 153 to 155 °C

Exercise: Same question for CC1(c2ccccc2)CC(C(=NOCC(O)CN2CCN(c3ccccc3)CC2)c2cc3ccccc3o2)C1 (configuration not stated) please.
Solution: 96 to 97 °C

Exercise: Same question for c1ccc2cc3c(cc2c1)CC1OC1C3 (configuration not stated) please.
Solution: 159 to 160 °C

Exercise: Same question for `OCc1ccc2nonc2c1` please.
Solution: 66 to 67 °C

###

For each of the compounds below, state its melting point.

Exercise: Would you kindly share the measured melting point for `CNCc1ccc(-c2noc(C)n2)cc1` ?
Solution: 51 to 53 °C

Exercise: Same question for `COC(=O)c1nn2ccccc2c1C(=O)OC` please.
Solution: 72 to 74 °C

Exercise: Same question for `Cc1ccc2cc3nc(C)ccc3cc2n1` please.
Solution: 237 to 238 °C

Exercise: Same question for `CCCCCCCCC=CCCCCCCCC(=O)OC(=O)CCCCCCCC=CCCCCCCCC` please.
Solution: 22 to 23 °C

Exercise: Same question for `CC(=O)c1c(C)n(O)c2ccc3nonc3c12` please.
Solution: 301 to 303 °C

Exercise: Same question for `O=Cc1cccn1-c1ccc(Cl)cc1` please.
Solution: 92 to 96 °C

###

For each of the compounds below, state its melting point.

Exercise: Would you kindly share the measured melting point for `O=Cc1ccc2cccnc2n1` ?
Solution: 138 to 143 °C

Exercise: Same question for O=C(O)c1ccccc1N=NC1SC(=S)NC1=O (stereo unspecified) please.
Solution: 244 to 245 °C

Exercise: Same question for `O=C(Cl)c1ccc(-c2ccco2)cc1` please.
Solution: 101 to 103 °C

Exercise: Same question for `Cc1ncc(CO)c(N)n1` please.
Solution: 198 °C

Exercise: Same question for `COc1ccc2ccccc2c1C#N` please.
Solution: 94 to 98 °C

Exercise: Same question for `CC(C)[C@H](NC(=O)OCC1c2ccccc2-c2ccccc21)C(=O)O` please.
Solution: 143 to 147 °C

###

For each of the compounds below, state its melting point.
Report only the number, with the unit °C understood.

Exercise: Would you kindly share the measured melting point for `Oc1ccc(OCc2ccccc2)cc1` ?
Solution: 122

Exercise: Same question for `COc1ccc2c(c1)[nH]c1c(C)nccc12` please.
Solution: 273

Exercise: Same question for C=C1C(=O)C23C4CC5C(C)(C)CCC(OC(C)=O)C5(C(OC(C)=O)O4)C2C(OC(C)=O)CC1C3OC(C)=O (centres undefined) please.
Solution: 230

Exercise: Same question for `Nc1nccc(-c2ccncc2)n1` please.
Solution: 81.3

Exercise: Same question for `O=C(CCCCl)c1ccc(F)cc1` please.
Solution: 6

Exercise: Same question for `CN1CCN(c2ccc(C(=O)O)cc2)CC1` please.
Solution: 270

Exercise: Same question for `OCc1ccco1` please.
Solution: -14.6

Exercise: Same question for `N#Cc1c(-c2ccccc2)c2c(=O)[nH]n(-c3ccccc3)c2[nH]c1=S` please.
Solution: 142

Exercise: Same question for `O=C(O)C1(C(F)(F)F)CCCC1` please.
Solution: 37

Exercise: Same question for `Cc1c([N+](=O)[O-])c(C)c([N+](=O)[O-])c(C(C)(C)C)c1[N+](=O)[O-]` please.
Solution: 110

Exercise: Same question for `Cc1cccc(C)c1NC(=O)CCl` please.
Solution: 148

Exercise: Same question for `CN(C)c1ccc(C#N)cc1` please.
Solution: 74

Exercise: Same question for CC1C2Cc3ccc(O)cc3C1(C)CCN2CC1CC1 (centres undefined) please.
Solution: 202

Exercise: Same question for `c1cc2c(c3c1CCCC3)CCCC2` please.
Solution: 16.7

###

Rule: melting point under 100 °C gives no (0), otherwise yes (1).

Exercise: Does the reported melting point for COC(=O)C1CC(=O)c2ccccc21 (centres undefined) fall at or above the 100 °C mark?
Solution: no (0)

Exercise: Same question for `COc1cc(O)c(C(C)=O)c(OC)c1` please.
Solution: no (0)

Exercise: Same question for `CC(=O)Nc1ccc(C=Cc2ccc(NC(C)=O)cc2)cc1` please.
Solution: yes (1)

Exercise: Same question for `O=P(N1CC1)(N1CC1)N(N=Cc1ccccc1)c1ccccc1` please.
Solution: yes (1)

Exercise: Same question for `O=C(CBr)c1ccc(F)cc1` please.
Solution: no (0)

###

propertyMeasured: melting point

Exercise: Would you kindly share the measured melting point for `Cc1nnc(-c2cccc(S(=O)(=O)Cl)c2)o1` ?
Solution: 56 to 59 °C

Exercise: Same question for `O=C(Oc1c(F)c(F)c(F)c(F)c1F)c1sccc1C1OCCO1` please.
Solution: 55.5 to 59.5 °C

Exercise: Same question for `N#Cc1ccsc1N` please.
Solution: 103 to 106 °C

Exercise: Same question for `N#CCc1coc2ccccc12` please.
Solution: 39 to 41 °C

Exercise: Same question for `Cn1nc(-c2ccco2)cc1CO` please.
Solution: 83 to 85 °C

Exercise: Same question for `OCc1cccc2cccc(Br)c12` please.
Solution: 89 to 90 °C

Exercise: Same question for `CCC1=C(C=NNc2ccc([N+](=O)[O-])cc2[N+](=O)[O-])CCCC1` please.
Solution: 192 to 194 °C

Exercise: Same question for COC(=O)CCC(C)C1CCC2C3CCC4CC(=O)CCC4(C)C3CC(=O)C12C (centres undefined) please.
Solution: 129 to 130 °C

Exercise: Same question for CC1CC(=O)c2cc(Cl)ccc2S1 (centres undefined) please.
Solution: 64 to 65 °C

###

For each of the molecules below, state its melting point.

Exercise: Would you kindly share the measured melting point for NC(Cc1ccc(Br)cc1)C(=O)O (racemic) ?
Solution: 262 to 263 °C

Exercise: Same question for O=C1OC(C2COC3(CCCCC3)O2)C2OC3(CCCCC3)OC12 (centres undefined) please.
Solution: 110 to 113 °C

Exercise: Same question for `CCOC(=O)c1c(C)sc(Sc2ccccc2[N+](=O)[O-])c1O` please.
Solution: 144 to 146 °C

Exercise: Same question for Cc1cccc2c1CC(C(=O)O)N(C(=O)OC(C)(C)C)C2 (racemic) please.
Solution: 142 to 144 °C

###

For each of the molecules below, state its melting point.

Exercise: Would you kindly share the measured melting point for `CCCCOc1ccc(CO)cc1` ?
Solution: 29 to 32 °C

Exercise: Same question for `c1coc(CNc2ncnc3[nH]cnc23)c1` please.
Solution: 269 to 271 °C

Exercise: Same question for `O=C(O)c1ccc2c(c1)OCCOCCOCCOCCO2` please.
Solution: 188 to 191 °C

Exercise: Same question for `FC(F)(F)c1cc(-n2cccc2)cc(C(F)(F)F)c1` please.
Solution: 43 to 45 °C

Exercise: Same question for `COc1ccc(N=C=S)c([N+](=O)[O-])c1` please.
Solution: 111 to 113 °C

Exercise: Same question for `CN1C(=O)CSC1=S` please.
Solution: 72 to 73 °C

Exercise: Same question for `Nc1c([N+](=O)[O-])cc(F)c(F)c1F` please.
Solution: 46 to 48 °C

Exercise: Same question for `O=Cc1c(-c2ccccc2)nc2n1CCS2` please.
Solution: 127 to 128 °C

Exercise: Same question for `O=[N+]([O-])c1ccc(Sc2ccc(N=C=S)cc2)cc1` please.
Solution: 124 to 126 °C

Exercise: Same question for CCCC1(C)CC(=O)NC1=O (stereo unspecified) please.
Solution: 76 to 78 °C

Exercise: Same question for `COc1ccc(-c2ccc(C(=O)O)o2)cc1` please.
Solution: 176 to 178 °C
